# Tested on: P. Falciparum NF54
# TEST PROTOCOL: Plasmodium falciparum in vitro assay ([3H]-hypoxanthine incorporation)
# Format: cell-based
# CONDITION CONTEXT: Plasmodium falciparum, Erythrocyte, P. Falciparum NF54, erythrocytic stages in human red blood cells, 50% human serum
pIC50: −log10 of the molar value.
Would you please tag the item Yes when its pIC50 is 7 or above, and No when it is below?

{"COMPOUND": "CN(c1ccncc1)c1ccc(CN(C(=O)/C=C/c2ccc(C(F)(F)F)cc2)C2CCN(CC3CC4C=CC3C4)CC2)cc1 (centres unmarked)", "LABEL": "Yes"}
{"COMPOUND": "CN1CCC(N2CCC(N(Cc3ccc(N(C)c4ccncc4)cc3)C(=O)/C=C/c3ccc(C(F)(F)F)nc3)CC2)CC1", "LABEL": "Yes"}
{"COMPOUND": "Cc1cc(Nc2ccc(CN(C(=O)/C=C/c3ccc(C(F)(F)F)cc3)C3CCN(C4CCCC4)CC3)cc2)cc(C)n1", "LABEL": "Yes"}
{"COMPOUND": "CN1CCC(N2CC3(CC(N(Cc4ccc(N(C)c5ccncc5)cc4)C(=O)/C=C/c4ccc(C(F)(F)F)cc4)C3)C2)CC1", "LABEL": "Yes"}
{"COMPOUND": "CN1CCN(c2ccc(CN(C(=O)/C=C/c3ccc(C(F)(F)F)cc3)C3CCN(C4CCCC4)CC3)cc2)CC1", "LABEL": "No"}

Exercise: Quick check, pIC50 >= 7? O=C(/C=C/c1ccc(C(F)(F)F)cc1)N(Cc1ccc(-c2ncccn2)cc1)C1CCN(C2CCCC2)CC1
Solution: No

Exercise: In plain terms: is recorded pIC50 at least 7 for CN1CCC(N2CCC(N(Cc3ccc(N(C)c4ccncc4)cc3)C(=O)/C=C/c3ccc(OC(F)F)cc3)CC2)CC1 ?
Solution: Yes

Exercise: Does the compound COc1ccc2nc(C)cc(Nc3ccc(CN(C(=O)/C=C/c4ccc(C(F)(F)F)cc4)C4CCN(C5CCCC5)CC4)cc3)c2c1 have recorded pIC50 that is 7 or more?
Solution: Yes

====

# Tested on: P. Falciparum NF54
# TEST PROTOCOL: Plasmodium falciparum in vitro assay ([3H]-hypoxanthine incorporation)
# Assay type: cell-based
# CONDITION CONTEXT: Plasmodium falciparum, Erythrocyte, P. Falciparum NF54, erythrocytic stages in human red blood cells, 50% human serum
Where a name gives a salt, the structure may show the parent alone.
In this section we review reported log10 IC50 values for a set of compounds.
The base-10 logarithm of IC50, taken with IC50 in nM, is what appears here.

{"COMPOUND": "CN1CCC(N2CCC[C@H](N(Cc3ccc(N(C)c4ccncc4)cc3)C(=O)/C=C/c3ccc(C(F)(F)F)cc3)C2)CC1", "ENDPOINT LABEL": "log10 IC50", "REPORTED VALUE": 1.08}

get_value(item= CN1CCC(N(C)c2ccc(CN(C(=O)/C=C/c3ccc(OC(F)(F)F)cc3)C3CCN(Cc4ccccc4)CC3)cc2)CC1 , readout=log10 IC50) returns 2.54

// log10 IC50 lookup, compound = CN(c1ccncc1)c1ccc(CN(C(=O)/C=C/c2ccc(C(F)(F)F)cc2)[C@H]2CC[C@H](N3CCCC3)CC2)cc1 , result: 1.69

Quick note, log10 IC50 for CC(C)N1CCC(N(Cc2cccc(N(C)c3ccncc3)n2)C(=O)/C=C/c2ccc(C(F)(F)F)cc2)CC1 [Example 127, formate] landed at 2.26

Recorded log10 IC50 (compound Cc1cc(Nc2ccc(CN(C(=O)/C=C/c3ccc(C(F)(F)F)cc3)C3CCN(Cc4nc(C)oc4C)CC3)cc2)ccn1 ): 1.95

Kindly note the recorded log10 IC50 for O=C(/C=C/c1ccc(C(F)(F)F)cc1)N(Cc1ccnc(N2CCCC2)c1)C1CCN(C2CCCC2)CC1 , which is 2.65

log10 IC50 reading for CN1CCC(N2CCC[C@@H](N(Cc3ccc(N(C)c4ccncc4)cc3)C(=O)/C=C/c3ccc(C(F)(F)F)cc3)C2)CC1 : 1.04

Data point: CN(c1ccncc1)c1ccc(CN(C(=O)/C=C/c2ccc(C(F)(F)F)cc2)C2CCN(Cc3nc4ccccc4n3C)CC2)cc1 ; log10 IC50 = 2.55

Form: compound = CC(C)CCN1CC[C@H](N(Cc2ccc(N(C)c3ccncc3)cc2)C(=O)/C=C/c2ccc(C(F)(F)F)cc2)[C@H](F)C1 (racemic) ; log10 IC50 = 1.72

log10 IC50 recorded for this compound, CN1CCC(N2CCC(N(Cc3ccc(N(C)c4ccncc4)cc3)C(=O)/C=C/c3ccc(Cl)cc3)CC2)CC1 , is 1.32

Data point: Cc1cnccc1Nc1cncc(CN(C(=O)/C=C/c2ccc(C(F)(F)F)cc2)C2CCN(C(C)C)CC2)c1 [Example 137, formate] ; log10 IC50 = 1.67

Sample CN(c1ccncc1)c1ccc(CN(C(=O)/C=C/c2ccc(C(F)(F)F)cc2)[C@H]2CC[C@@H](N3CCCC3)CC2)cc1 ; log10 IC50 observed: 1.40

compound CC(C)N1CCC(N(Cc2cccc(Nc3ccncc3F)c2)C(=O)/C=C/c2ccc(C(F)(F)F)cc2)CC1 [Example 124, formate] , log10 IC50 observed: 2.48

====

Parameter: pIC50. Scope: all listed entries.
# Tested on: P. Falciparum NF54
# TEST PROTOCOL: Plasmodium falciparum in vitro assay ([3H]-hypoxanthine incorporation)
# Type: cell-based
# CONDITION CONTEXT: Plasmodium falciparum, Erythrocyte, P. Falciparum NF54, erythrocytic stages in human red blood cells, 50% human serum
Counter-ions that a name gives are not always drawn.
For clarity, pIC50 is expressed as the negative log10 of concentration in mol/L.

pIC50 for CC(C)CCN1CCCC(N(Cc2ccc(N(C)c3ccncc3)cc2)C(=O)/C=C/c2ccc(C(F)(F)F)cc2)CC1 (racemic) is 7.07

Item: Cc1nn(C)c(C)c1/C=C/C(=O)N(Cc1ccc(N(C)c2ccncc2)cc1)C1CCN(Cc2ccccc2)CC1 | pIC50: 6.72

The compound listed as CN1CCC(N2CCC(N(Cc3ccc(N(C)c4ccncc4)cc3)C(=O)/C=C/c3ccccc3)CC2)CC1 shows pIC50 equal to 7.16

Form field pIC50, entry CCCN1CCC(N(Cc2ccc(Nc3ccnc(C)c3)cc2)C(=O)/C=C/c2ccc(C(F)(F)F)cc2)CC1 : 7.38

Record O=C(/C=C/c1ccc(C(F)(F)F)cc1)N(Cc1ccc(Nc2ccnc3cc(Cl)ccc23)cc1)C1CCN(C2CCCC2)CC1 , field pIC50: 6.92

Quick note, pIC50 for Cc1cnccc1Nc1cccc(CN(C(=O)/C=C/c2ccc(C(F)(F)F)cc2)C2CCN(C(C)C)CC2)c1 [Example 123, formate] landed at 7.68

====

# Test system: P. Falciparum NF54
# TEST PROTOCOL: Plasmodium falciparum in vitro assay ([3H]-hypoxanthine incorporation)
# Format: cell-based
# CONDITION CONTEXT: Plasmodium falciparum, Erythrocyte, P. Falciparum NF54, erythrocytic stages in human red blood cells, 50% human serum
Where a name gives a salt, the structure may show the parent alone.
ENDPOINT LABEL: log10 IC50 (log10 of the value in nM)
Answers are given as log10 of IC50 in nM.

Some compounds with recorded log10 IC50:
{"COMPOUND": "Cc1nccc(Nc2ccc(CN(C(=O)/C=C/c3ccc(C(F)(F)F)cc3)C3CCN(C4CCCC4)CC3)cn2)n1", "log10 IC50": 2.63}
{"COMPOUND": "CN1CCC(N2CCC(N(Cc3ccc(N(C)c4ccncc4)cc3)C(=O)/C=C/c3ccc(C#N)cc3)CC2)CC1", "log10 IC50": 1.73}
{"COMPOUND": "CCN1CCC[C@H](N(Cc2ccc(N(C)c3ccncc3)cc2)C(=O)/C=C/c2ccc(C(F)(F)F)cc2)C1", "log10 IC50": 2.15}
{"COMPOUND": "CC(C)N1CCC(N(Cc2cccc(Nc3ccncc3)n2)C(=O)/C=C/c2ccc(C(F)(F)F)cc2)CC1 [Example 132, formate]", "log10 IC50": 1.34}
{"COMPOUND": "CN(c1ccncc1)c1ccc(CN(C(=O)/C=C/c2ccc(C(F)(F)F)cc2)C2CCN(CC3CC3)CC2)cc1", "log10 IC50": 1.43}

So for Cc1cc(Nc2ccc(CN(C(=O)/C=C/c3ccc(C(F)(F)F)cc3)C3CCN(Cc4cc(C)nn4C)CC3)cc2)ccn1 , the logged log10 IC50 turned out to be 1.92

Briefly, log10 IC50 measured for COc1ccc(CN2CCC(N(Cc3ccc(N(C)c4ccncc4)cc3)C(=O)/C=C/c3ccc(C(F)(F)F)cc3)CC2)cc1 : 1.70

====

# System: P. Falciparum NF54
# TEST PROTOCOL: Plasmodium falciparum in vitro assay ([3H]-hypoxanthine incorporation)
# Format: cell-based
# CONDITION CONTEXT: Plasmodium falciparum, Erythrocyte, P. Falciparum NF54, erythrocytic stages in human red blood cells, 50% human serum
Structures can show the parent of a compound that is named as a salt.
ENDPOINT LABEL: IC50 (µM)
Form entry: value (µM) — number only.

{"COMPOUND": "Cc1cc(Nc2ccc(CN(C(=O)/C=C/c3ccc(C(F)(F)F)cc3)C3CCN(CCC(F)(F)F)CC3)cc2)ccn1", "REPORTED VALUE": 0.155}
{"COMPOUND": "CN(c1ccncc1)c1ccc(CN(C(=O)/C=C/c2ccc(C(F)(F)F)cc2)C2CCN(Cc3cccnc3)CC2)cc1", "REPORTED VALUE": 0.123}
{"COMPOUND": "CC(C)CCN1CCC[C@H](N(Cc2ccc(N(C)c3ccncc3)cc2)C(=O)/C=C/c2ccc(C(F)(F)F)cc2)C1", "REPORTED VALUE": 0.082}
{"COMPOUND": "O=C(/C=C/c1ccc(C(F)(F)F)cc1)N(Cc1ccc(Nc2ccncc2)cc1)C1CCN(C2CCCC2)CC1", "REPORTED VALUE": 0.043}
{"COMPOUND": "Cc1cc(Nc2ccc(CN(C(=O)/C=C/c3ccc(C(F)(F)F)cc3)C3CCN(Cc4nccs4)CC3)cc2)ccn1", "REPORTED VALUE": 0.341}

Lab note: Cc1cc(Nc2cccc(CN(C(=O)/C=C/c3ccc(C(F)(F)F)cc3)C3CCN(C(C)C)CC3)c2)ccn1 [Example 122, formate] gave IC50 of 0.043

The reported IC50 of the compound CC(c1ccccc1)N1CCC(N(Cc2ccc(N(C)c3ccncc3)cc2)C(=O)/C=C/c2ccc(C(F)(F)F)cc2)CC1 (racemic) was 0.175

// IC50 lookup, compound = CN(C)CCCOc1ccc(CN(C(=O)/C=C/c2ccc(C(F)(F)F)cc2)C2CCN(C3CCCC3)CC2)cc1 , result: 0.082

IC50 measured on CN(c1ccncc1)c1ccc(CN(C(=O)/C=C/c2ccc(C(F)(F)F)cc2)C2CCN(CCc3ccccc3)CC2)cc1 = 0.055

Consider CC(C)CCN1CCCCC(N(Cc2ccc(N(C)c3ccncc3)cc2)C(=O)/C=C/c2ccc(C(F)(F)F)cc2)C1 (racemic) . Its measured IC50 is 0.152

Entry under test: CC(C)N1CCC(N(Cc2cncc(Nc3ccncc3F)c2)C(=O)/C=C/c2ccc(C(F)(F)F)cc2)CC1 [Example 138, formate] . Its IC50 was 0.344
